- procedure_summary: soluble on expression in E. coli; label from the status in PepcDB or PDB records
readout_name: soluble on expression in E. coli

* MGSDKIHHHHHHMRLIGLTDLHNRIINFDKLLRYKPDAILISGDFTKCSFAKSANQNDSFEVITEQDTRIIDFLENLNNKIKVFIIPGNWENLDTIQKMNESGLNIDEKLVKFHDTIFIGLGGSNKTPICSPNEYSEDEIYERFIKILKNEKTDVKNNFILLSHVPPKDTMADRCEAGHVGSSAVRKIIEEFKPVLCACGHVHESRSIDKIGNTLIVNPSSTGFFIYDTKTKNLEIHDL | not soluble
* MIKLTEYIYLASEQPLSTGSITLNGLSKPTGNLLNKAFFFFINDFEGDPPGKFSYSNYLKTLNYQVCSMCSLPSDNQNIETPSAIALLGYIRNHFKNTCTTKLYILSALNGFENKPISKTVTRKLSDLSYKDLYYQEMKLLKIIR | not soluble
* MARGIWGVDSAQVVTDQLFQCVRTELGYPKFWGRYLSEVPNVSEGLTRDEIVRIRNYGVKVLPIYNAFREAVGYANGQVAARNAVFHARRLGIPKNKLLFANIEDFFAVDAAWIAAWVETLYPTGYRPGLYADPTKGDFAAAYCEAVSRNNQVAVQAVIWSAAPRPGTTKEQKAPRYQPAAPPCSANVWVWQYGRDAEVCPVDTNLADRRLLDFLY | soluble
* MESTAPNAPTEEAPEPTPFVFEFKNNHIKLIELHVYTDSMEILLIGNDGNRYEVEIQEYPGEACIEQISLNRVLVQKKECTSMYPSAPIAIVTLYSILRQPGVKVDCFYYRILNQYFVRDKNNKTEHAKWDERSASLTKMLKAMMRALMKKLEVEVFKIVYNGKEEEVMCLLPYFEPGYLRRICLFNPLYVSPTVIDNIITTEQWKQAKELNTMTGEPVAFPVESHAHFESLRIRIPELKQIDVILLVLKYLNQKTPKDNEIGVQNVSELFDFMWGSMGIPHENDPETIRYTWKSGTYNLYAEVTKNGVRFTSETRQA | not soluble
* MSLASVDPYEHLNAWVSAIETSGVLVLATRGGKVAIDEMRGMCLYFDELPVIVLNGSDHPRPRLFSLLHEFVHVVLHTEGLCDVIADAHPSTQDRSLEARCNAIAAAVLMPADVVRARPEVIVRSETPSSWDYESLRPVAAHFGVSAEAFLRRLSTLGIVPVEVYRQRRAEFIAAHEDEAERARSAGGGNWYRNTVRDLGKGYVRAVTDAHRRRVIDSNTAAIYLDAKVSQIPKLAESAELRSVEGHHHHHH | not soluble
* MGSDKIHHHHHHMSQAFLASENEQIKDYYEENGYVVVKNAVSLEKITDFINKYENFKISKNYYFRSQDTNRAEKLAINEKGFIERSILNPLELVYQKDFCRSSSNIICADSVSQILRTLTGKQKHTIWQTMFFDKSTGTVAHQDHYYLDSDPPGNLIACWYALEDIQEDAGAFFVVPKSHKGSVIPRKTDVPLFSDHEEYAKNIQKLINEQSYPIQPMLLEKGSVLFWHPYLIHGAFQNTNPKYSRKSFTAHFLPEGYSRLGISRVKPTVISTNPNILSWKKNLLHHAEASIRHWRYWLQVNLRPKSQRPYLEMRSSEYLDIK | not soluble
* MDWDDEYSHNSFDLHCLLNSFPGDLEFEQIFSDIDEKIEQNAASIKHCIKEIQSEINKQCPGVQLQTTTDCFEWLTNYNYSTSESSFISHGDLIKFFKTLQDLLKNEQNQEEMTLDLLWDLSCHSSVSFPSTLSGTSFHFLSRTSLHSVEDNSSMDVKSMWDDIRLHLRRFLVSKLQSHNEINNSQQKILLKKQCLQQLLFLYPESEVIIKYQNIQNKLLANLLWNCFPSYNRDSNLDVIAHGYQSTMLKLYSVIKEDFNTLCEILAPSSMVKFIKETYLDTVTEEMAKFLENFCELQFRENAVRVVKTSKSSSKHRGAVHALG | soluble
* MRGSHHHHHHTDPALRAYDNLKSLGITNPEEIDRYSLRQEANNDILKIYFQKDKGEFFAKSVKFKYPRQRKTVVADGVGQGYKEVQEISPNLRYIIDELDQICQRDRSEVDLKRKILDDLRHLESVVTNKISEIEADLEKLTRKGLCGR | soluble

sequence `MGSDKIHHHHHHMNIQDYPDRDMLAIDLANHLAGELEATLFTHDSATLAVAGGTTPGPVFDVLCAADLDWHRVMVLPTDERCVPQDHSRANARLIAERLLVNRAASARYLPLYLPGAEPEDCLAEVEALLTPALPLSVLVLGMGEDMHTASLFAGMPGLAAALDADAPALAVARPETQPENRITLTAPVLNGALSKHLIIYGAAKRKALERAMSMHPEEAPIAAVLDGITVHWAE` , soluble on expression in E. coli observed: not soluble

soluble on expression in E. coli measured on `MGNTAITRVQMEATKSVPVDHAKYMSGSGAPPPECPMHQKHGDAKSASAVPPHPKMQAASECPVQHDNSDVNPLNMMPPANQQPAADQPFPLPTDRQTSTIPKVTEDGSVQFWQYPSQQMFWNAMLRKGWRWKTEDVSQKDMGDIIRIHNANNEQAWQEVLKWEALHAKECGNPRLKSFGGKAKDFSPRARFRSWLGYELPFDRHDWIVDRCGKDVRYVIDYYDGGLVDKDYRFALLDVRPAMDSVDNVWDRMRVAYMRWKYELFEKFGSADGGKVTAGSDLEHHHHHH` = not soluble

soluble on expression in E. coli measured on `MEQTLRVSVFGATGYTGIELLRSLLTHPHFEVKNLISQSYKGKKVREVLPFFSNTYISEIEFLEEPVEDYELAFLCLPHEVSYEIVPKLLSQGKKVVDLSGAYRIKSPKAYEEFYGFKHEREDILQRAVYGLPEVFREEIKNSDLVANPGCYPTATLLAIYPFLKERVGIESVIVHALSGVSGAGRKPKQQFHFPEMTENFFNYAVEKHRHTPEMEDVIRRVYGREVKVRFTPTVVPTSRGMISTVYLKSEKLNVKELFKEVYEDEIFVKVVDEPPQTKWVLGTNYCFIYPHYDERTGYYVIISAIDNLGKGASLQAVQNANLMFGLAEDDGLLQLPVFP` = soluble

Entry under test: `MKRYTPDFPEMMRLCEMNFSQLRRLLPRNDAPGETVSYQVANAQYRLTIVESTRYTTLVTIEQTAPAISYWSLPSMTVRLYHDAMVAEVCSSQQIFRFKARYDYPNKKLHQRDEKHQINQFLADWLRYCLAHGAMAIPVYLEHHHHHH` . Its soluble on expression in E. coli was soluble

====

- procedure_summary: soluble on expression in E. coli; label from the status in PepcDB or PDB records
readout_name: soluble on expression in E. coli

• MKELLKELVEKNRKFTADGNVANYIPELDKADKNALGIYVTTLDGQEFFAGDYNTKFTIQSISKIISLMLAILDNGEEYVFSKVGMEPSGDPFNSIRKLETSSRKKPYNPMINAGAIAVASMIKGKDDREKFSRLLNFAKLITEDDSLDLNYKIYIGESDTGFRNYSMAYFLKGEGIIEGNVNEALTVYFKQCSIEGTAKTISTLGKFLANDGVLSNGERILTTRMAKIIKTLMVTCGMYDSSGEFAVRVGIPSKSGVGGGICSVVPGKMGIGVYGPSLDKKGNSLAGGHLLEDLSAELSLNIFLEHHHHHH = not soluble
• MVSPLKTRCCSPSSQQQASEAREIEQPSTVWELDFYSRPVYGKDNKRIWELIVVDESFLLCHVESVPNDMINSAELRKRVERLLEQVTVKPKVVKFSRMPMFNMISLALKDLGFEVKPSRRTYRLYHVLRDREANIYSKMPGYRSENTLSTSYLYSTERLPDALRGEKFAFCTADYSFLYELQSSDTIPYCDIFNTGDSILLEKELPGIIVYSERADSLASWTAGAEVSFIKFREEELELVLECGINSHYRLAKIAEDHRLVEEAKTFEQMKWHMKGFHFYAIQSLKETSGTSHIKGLWLLNDFMEQ = not soluble

====

- procedure_summary: soluble on expression in E. coli; label from the status in PepcDB or PDB records
readout_name: soluble on expression in E. coli

These solved cases illustrate the format of a correct answer.
- MVQQKVEVRLKTGLQARPAALFVQEANRFTSDVFLEKDGKKVNAKSIMGLMSLAVSTGTEVTLIAQGEDEQEALEKLAAYVQEEVLQ: soluble
- MEAVWGILPKTVAAALQHHLPSCRRGIEEIRIRVSRPLEVIVDGTARLLPYEVTKEDGVHLLNKLSHYSIYAVEEELKRGFMTIEGGHRVGLAGKVITEGGKVKAIRDVSSFNIRIAKEQIGISEPLIPYVYDGRWRHTMIIGSPQTGKTTLLRDAARLISSGTGRIPAQKVAIVDERSEIAGCVKGIPQFSFGPRLDVLDACPKAEGMMMMIRSMSPDVMIVDEIGREEDSEAVLEAANAGVSVWTTVHGRNIQDVWQRPTLGPVMEQKVFERFIELTNIPHPGSIRRILDAGGTVLYERAVVHR: not soluble
- MGSDKIHHHHHHMTTTNGIDGSYYYENRPKEQSNSGILGKDDFLRILIAQLQYQDPLNPMDDREFIAQMAQFSSLEQMTNMNSAIQQFVKQQTSQTLVQHSELIGKRVTWKRIIDIDEYRQKEELVENTVTSVRLETNGNVSIQLDSGRWISADQLVQVSGKTNHQEEAEGDVGDNAPDEQEG: not soluble
- MAVPQLYYFTIRGFGEYIRLLFLDNGIKFEDIRFDYEGNEWQEFKKGMLLGQLPCLKVDGQEIVQTGAIMRHLGRVHGLNGSNEQEATFLDMFFEGVRDVRMKYVRYIYYDEGTREDCVNKTIPEALVKLEELFKAHSGDFIIGNKISYADYILFEELDVYHVLDANILDKFPTLKSFWERMWKRPNLNAYLEKRKADKVWINAIEKGMN: soluble
- MAARKVRIQTTINSNVYEHYIKKLLPEYGQLNKLIEEAVKQLFEIRENELSKLDRLRAKMMREAGVIAIGFESAEKALKGEIEKVLSENEINFLLEWYYGRPIEKIAFEEAIEFMRTALIAMNWAVDAKVNLEGEETHIMVRSNLGRGLAELLCMVIKHFFERNYGVEVRFSVYPGGYTLSFRHVSTDAYPCSSVRE: not soluble

// sample `RLLGAPVPVDENDEGLQRALQFAMAEYNRASNDKYSSRVVRVISAKRQLVSGIKYILQVEIGRTTCPKSSGDLQSCEFHDEPEMAKYTTCTFVVYSIPWLNQIKLLESKCQ` , its soluble on expression in E. coli was soluble

soluble on expression in E. coli in this record for `MSLNINDALTSILASKKYRALCPDTVRRILTEEWGRHKSPKQTVEAARTRLHGICGAYVTPESLKAAAAALSAGDVKKALSLHASTKERLAELDTLYDFIFSAETPRRVLDIACGLNPLALYERGIASVWGCDIHQGLGDVITPFAREKDWDFTFALQDVLCAPPAEAGDLALIFKLLPLLEREQAGSAMALLQSLNTPRMAVSFPTRSLGGRGKGMEANYAAWFEGGLPAEFEIEDKKTIGTELIYLIKKNGEGHHHHHH` : soluble

// field: soluble on expression in E. coli; key: `PAQDYRCQLSRNYGKGSGSFTNYYYDKATSSCKTFRYRGSGGNGNRFKTLEDCEATCVTAE` ; value = soluble
